Overview of recorded Max inhibition for various compounds
- Assay Target: UniProt:P97612
- Test Summary: Inhibition of fatty acid amide hydrolase (FAAH) in rat brain homogenates
- Format: tissue-based
Measured Quantity: Max inhibition (%)

compound="CCCCC/C=C\\C/C=C\\C/C=C\\C/C=C\\CCCC(=O)OCC1CCCO1 (stereo not given)" measured_quantity="Max inhibition" output_unit=% reported_value=23
compound="CCCCC/C=C\\C/C=C\\C/C=C\\C/C=C\\CCCC(=O)NC(C)Cc1cccs1 (stereo not given)" measured_quantity="Max inhibition" output_unit=% reported_value=36
compound=CCCCC/C=C\C/C=C\C/C=C\C/C=C\CCCC(=O)NCc1ccsc1 measured_quantity="Max inhibition" output_unit=% reported_value=76
compound=CCCCC/C=C\C/C=C\C/C=C\C/C=C\CCCC(=O)OCCc1ccsc1 measured_quantity="Max inhibition" output_unit=% reported_value=100
compound=CCCCC/C=C\C/C=C\C/C=C\C/C=C\CCCC(=O)Nc1ccc(O)cc1 measured_quantity="Max inhibition" output_unit=% reported_value=100

====

Overview of recorded pIC50 for various compounds
- Assay Target: Fatty-acid amide hydrolase 1 (Rattus norvegicus, UniProt P97612)
- Sequence (P97612 whole entry): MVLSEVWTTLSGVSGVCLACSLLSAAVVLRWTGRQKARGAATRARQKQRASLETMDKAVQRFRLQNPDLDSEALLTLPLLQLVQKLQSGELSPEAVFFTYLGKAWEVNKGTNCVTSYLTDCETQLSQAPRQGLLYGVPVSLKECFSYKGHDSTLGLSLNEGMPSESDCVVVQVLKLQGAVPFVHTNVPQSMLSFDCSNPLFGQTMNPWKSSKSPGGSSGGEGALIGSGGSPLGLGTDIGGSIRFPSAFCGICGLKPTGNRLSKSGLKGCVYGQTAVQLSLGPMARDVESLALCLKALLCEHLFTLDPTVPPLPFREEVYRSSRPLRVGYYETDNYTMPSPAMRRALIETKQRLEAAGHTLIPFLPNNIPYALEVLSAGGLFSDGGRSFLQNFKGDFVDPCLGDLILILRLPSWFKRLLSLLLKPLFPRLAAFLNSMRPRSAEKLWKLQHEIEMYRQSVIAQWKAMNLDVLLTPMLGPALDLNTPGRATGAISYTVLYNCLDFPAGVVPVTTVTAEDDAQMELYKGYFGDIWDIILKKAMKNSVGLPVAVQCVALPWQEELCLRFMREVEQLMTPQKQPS
- Test Summary: Inhibition of fatty acid amide hydrolase (FAAH) was determined using rat brain homogenates as the enzyme source and [3H]anandamide as substrate
- Type: tissue-based
pIC50: −log10 of the molar value.
Measured Quantity: pIC50

compound=CCCCC/C=C\C/C=C\C/C=C\C/C=C\CCCC(=O)N(C)Cc1ccoc1 assay_target="Fatty-acid amide hydrolase 1 (Rattus norvegicus, UniProt P97612)" value_relation_sign=< reported_value=3.92
compound=CCCCC/C=C\C/C=C\C/C=C\C/C=C\CCCC(=O)O[C@@H](C)c1ccco1 assay_target="Fatty-acid amide hydrolase 1 (Rattus norvegicus, UniProt P97612)" value_relation_sign=< reported_value=3.92
compound=CCCCC/C=C\C/C=C\C/C=C\C/C=C\CCCC(=O)NCCc1cccs1 assay_target="Fatty-acid amide hydrolase 1 (Rattus norvegicus, UniProt P97612)" value_relation_sign== reported_value=3.99
compound=CCCCC/C=C\C/C=C\C/C=C\C/C=C\CCCC(=O)NCc1ccsc1 assay_target="Fatty-acid amide hydrolase 1 (Rattus norvegicus, UniProt P97612)" value_relation_sign== reported_value=4.92
compound=CCCCC/C=C\C/C=C\C/C=C\C/C=C\CCCC(=O)OCc1cccs1 assay_target="Fatty-acid amide hydrolase 1 (Rattus norvegicus, UniProt P97612)" value_relation_sign== reported_value=4.92
compound="CCCCC/C=C\\C/C=C\\C/C=C\\C/C=C\\CCCC(=O)NCC1CCCO1 (stereo unspecified)" assay_target="Fatty-acid amide hydrolase 1 (Rattus norvegicus, UniProt P97612)" value_relation_sign== reported_value=4.36
compound=CCCCC/C=C\C/C=C\C/C=C\C/C=C\CCCC(=O)OCc1ccco1 assay_target="Fatty-acid amide hydrolase 1 (Rattus norvegicus, UniProt P97612)" value_relation_sign== reported_value=4.28
compound=CCCCC/C=C\C/C=C\C/C=C\C/C=C\CCCC(=O)NCc1cccs1 assay_target="Fatty-acid amide hydrolase 1 (Rattus norvegicus, UniProt P97612)" value_relation_sign== reported_value=3.95
compound=CCCCC/C=C\C/C=C\C/C=C\C/C=C\CCCC(=O)SCc1ccco1 assay_target="Fatty-acid amide hydrolase 1 (Rattus norvegicus, UniProt P97612)" value_relation_sign=< reported_value=3.92
compound=CCCCC/C=C\C/C=C\C/C=C\C/C=C\CCCC(=O)NCc1ccco1 assay_target="Fatty-acid amide hydrolase 1 (Rattus norvegicus, UniProt P97612)" value_relation_sign== reported_value=4.47
compound=CCCCC/C=C\C/C=C\C/C=C\C/C=C\CCCC(=O)OCc1ccsc1 assay_target="Fatty-acid amide hydrolase 1 (Rattus norvegicus, UniProt P97612)" value_relation_sign== reported_value=4.08
compound="CCCCC/C=C\\C/C=C\\C/C=C\\C/C=C\\CCCC(=O)NC(C)Cc1ccsc1 (stereo unspecified)" assay_target="Fatty-acid amide hydrolase 1 (Rattus norvegicus, UniProt P97612)" value_relation_sign=< reported_value=3.92
compound="CCCCC/C=C\\C/C=C\\C/C=C\\C/C=C\\CCCC(=O)OCC1CCCO1 (stereo unspecified)" assay_target="Fatty-acid amide hydrolase 1 (Rattus norvegicus, UniProt P97612)" value_relation_sign=< reported_value=3.92
compound=CCCCC/C=C\C/C=C\C/C=C\C/C=C\CCCC(=O)OCCc1cccs1 assay_target="Fatty-acid amide hydrolase 1 (Rattus norvegicus, UniProt P97612)" value_relation_sign== reported_value=4.62
compound="CCCCC/C=C\\C/C=C\\C/C=C\\C/C=C\\CCCC(=O)NC(C)Cc1cccs1 (stereo unspecified)" assay_target="Fatty-acid amide hydrolase 1 (Rattus norvegicus, UniProt P97612)" value_relation_sign== reported_value=4.82
compound="CCCCC/C=C\\C/C=C\\C/C=C\\C/C=C\\CCCC(=O)OC(C)c1ccco1 (stereo unspecified)" assay_target="Fatty-acid amide hydrolase 1 (Rattus norvegicus, UniProt P97612)" value_relation_sign=< reported_value=3.92
compound=CCCCC/C=C\C/C=C\C/C=C\C/C=C\CCCCNCc1ccoc1 assay_target="Fatty-acid amide hydrolase 1 (Rattus norvegicus, UniProt P97612)" value_relation_sign== reported_value=4.54
compound=CCCCC/C=C\C/C=C\C/C=C\C/C=C\CCCC(=O)NCCc1ccco1 assay_target="Fatty-acid amide hydrolase 1 (Rattus norvegicus, UniProt P97612)" value_relation_sign=< reported_value=3.92
compound=CCCCC/C=C\C/C=C\C/C=C\C/C=C\CCCC(=O)O[C@H](C)c1ccco1 assay_target="Fatty-acid amide hydrolase 1 (Rattus norvegicus, UniProt P97612)" value_relation_sign=< reported_value=3.92
compound=CCCCC/C=C\C/C=C\C/C=C\C/C=C\CCCC(=O)Nc1ccc(O)cc1 assay_target="Fatty-acid amide hydrolase 1 (Rattus norvegicus, UniProt P97612)" value_relation_sign== reported_value=5.43
compound=CCCCC/C=C\C/C=C\C/C=C\C/C=C\CCCC(=O)OCCc1ccsc1 assay_target="Fatty-acid amide hydrolase 1 (Rattus norvegicus, UniProt P97612)" value_relation_sign== reported_value=4.55
